Test protocol: Cytotoxicity against HEK293 cells assessed as cell viability at 40 uM after 72 hrs by resazurin-based plate reader analysis
Conditions used: human, read-out: Activity
Consider the following compounds; for each one, report its viability at 72 h, 40 µM.
Lab book: enter the figure in %, no units written.

Input: Entry C[C@H]1[C@@H](O)O[C@@H]2O[C@@]3(C)CC[C@H]4[C@H](C)CC[C@@H]1[C@@]24OO3 has what viability at 72 h, 40 µM?
Output: 54

Input: Entry CCN(CC)CCCC(C)Nc1ccnc2cc(Cl)ccc12 (stereo not drawn) has what viability at 72 h, 40 µM?
Output: 51

Input: Entry CCc1nc(N)nc(N)c1-c1ccc(Cl)cc1 has what viability at 72 h, 40 µM?
Output: 75
